The reader will find reported IC50 values listed item by item below.
- System: VCaP cells
- Test Summary: VCaP growth inhibition assay (CTG)
- Type: cell-based
- Test Parameters: Homo sapiens, 216 h, 30 pM R1881, 9 days

Requested read-out IC50, target or system VCaP cells, entry "CC(=O)N1CCc2c(c(N3CCCc4cc(-c5cnn(C)c5)c(C(F)F)cc43)nn2[C@@H]2CCN(CC3CCN(c4ccc(C(=O)N[C@H]5CC[C@H](Oc6ccc(C#N)c(Cl)c6)CC5)nn4)CC3)C[C@@H]2F)C1"
≤ 0.1 nM

Requested read-out IC50, target or system VCaP cells, entry "Cn1c(=O)n(C)c2cc(N3CCCc4cc(-c5ccc(CCC6CCN(c7ccc(C(=O)N[C@H]8CC[C@H](Oc9ccc(C#N)c(Cl)c9)CC8)nn7)CC6)nc5)c(C(F)F)cc43)ccc21"
> 100 nM

Requested read-out IC50, target or system VCaP cells, entry "CC(=O)N1CCc2c(c(-c3cccc4cc(-c5ccc(CCN6CCN(c7ccc(C(=O)N[C@H]8CC[C@H](Oc9ccc(C#N)c(Cl)c9)CC8)nn7)CC6)nc5)ncc34)nn2C2CCOCC2)C1"
≤ 0.1 nM

Hello, the source for this data is patent US20250136578A1, in case you need it.
